molecular target: T1, purified recombinant MHC II protein, allele DRB1*0401 (human); experiment: MHC II competition binding assay
T1 construct: bought from Benaroya Research Institute; also called DR4; MHC-II DR molecule
Quantity kind: IC50 (nM)
Write the answer as a number in nM, unit excluded.

Output measured IC50 for this item: HLHFQRMVNSFGNPTAQ (synthetic mutated peptide of the lysostaphin catalytic domain; also called S124G) [cluster 5 peptide with Ser124Gly] 40
